# Tested on: SK-MEL-28 melanoma
# Assay: NCI-60 one-dose screen, 48 h (100 = growth as untreated, 0 = no growth, -100 = all killed)
# Measurement context: 10 µM unless noted
# Description: Growth inhibition of the SK-MEL-28 human tumor cell line is measured as a screen for anti-cancer activity. Cells are grown in 96 well plates and exposed to the test compound for 48 hours. Compounds are tested at a single concentration, which is 10^-5 M for most compounds. The reported endpoint is percent growth (GI% or GIPRCNT), where numbers from 0 - 100% represent growth inhibition, and numbers from -100% - 0 represent cell death. For example, a value of 40 represents 60% growth inhibition. […]
Compounds without any hit were thinned out: in the full panel of roughly 83,000, 20% have a hit. The source made the active and inactive calls. Rule for the calls: active = growth percent below 10; inactive = the rest.
Recorded growth for the following compounds
Quantity measured: growth

In [3]: df
Out[3]:
                        structure_as_smiles  quantity_measured                       val
0         Cc1cc(-c2ccccc2)cc(SC#N)[n+]1[O-]             growth          45.1% (inactive)
1          CCN(CCO)CC(=O)c1cc(Cl)cc(Cl)c1Cl             growth           111% (inactive)
2   Nc1ccc2c(S(=O)(=O)O)ccc(S(=O)(=O)O)c2c1             growth           116% (inactive)
3            COc1cc2oc3cc(C)oc(=O)c3c2cc1OC             growth           115% (inactive)
4  Cn1cc(-c2ccc3nc(-c4ccc(CC(=O)Nc5cc(C(C)(C)C)no5)cc4)cnc3c2)cn1             growth  37.5% [30 µM] (inactive)
5  Oc1[nH]c2ccccc2c1/C=c1/cc2c(c(-c3ccc(F)cc3)n1)=Nc1ccccc1-2             growth           -47.3% (active)
6       N#C/C(=C\c1ccc(Br)cc1)n1nnc2ccccc21             growth            6.49% (active)
7  CC(C)(C)c1ccc(C(=O)Nc2sc3c(c2C(N)=O)CCC(=O)C3)cc1             growth           -14.9% (active)
8   N#Cc1cnn2c(-c3ccc(Cl)cc3)nc(NC3CC3)nc12             growth           113% (inactive)

These data points were gathered from PubChem BioAssay (NCI).
